Tested on: Rattus norvegicus
protocol details: Antiinflammatory activity in Albino rat assessed as inhibition of carrageenan-induced edema at 50 mg/kg, po after 4 hrs
// label = satisfied if inhibition in vivo at 50 mg/kg is not less than 3%, otherwise not satisfied

| molecule | study target | label class |
| --- | --- | --- |
| O=S(=O)(c1ccccc1)c1cnc2ncnn2c1-c1ccc(Br)cc1 | Rattus norvegicus | not satisfied |
| Cc1ccc(-c2c(S(=O)(=O)c3ccccc3)cnc3ncnn23)cc1 | Rattus norvegicus | satisfied |
| Cc1ccc(-c2c(S(=O)(=O)c3ccccc3)cnc3cc(-c4ccc(Br)cc4)nn23)cc1 | Rattus norvegicus | satisfied |
| Cc1ccc(-c2c(S(=O)(=O)c3ccccc3)cnc3cc(-c4ccccc4)nn23)cc1 | Rattus norvegicus | satisfied |
| Cc1ccc(-c2c(S(=O)(=O)c3ccccc3)cnc3c(Br)c(-c4ccccc4)nn23)cc1 | Rattus norvegicus | satisfied |
| Cc1ccc(-c2c(S(=O)(=O)c3ccccc3)cnc3cc(C)nn23)cc1 | Rattus norvegicus | satisfied |
| O=S(=O)(c1ccccc1)c1cnc2cc(-c3ccc(Cl)cc3)nn2c1-c1ccc(Br)cc1 | Rattus norvegicus | satisfied |
| Cc1ccc(-c2c(S(=O)(=O)c3ccccc3)cnc3nc4ccccc4n23)cc1 | Rattus norvegicus | not satisfied |
| Cc1cc2ncc(S(=O)(=O)c3ccccc3)c(-c3ccc(Br)cc3)n2n1 | Rattus norvegicus | not satisfied |
| Cc1ccc(-c2cc3ncc(S(=O)(=O)c4ccccc4)c(-c4ccc(C)cc4)n3n2)cc1 | Rattus norvegicus | satisfied |
| COc1ccc2c(c1)c(CC(=O)O)c(C)n2C(=O)c1ccc(Cl)cc1 | Rattus norvegicus | satisfied |

---

Reported Activity values for the following compounds.
Test system: Mus musculus
protocol details: Analgesic activity against visceral pain in Albino mouse assessed as acetic acid-induced writhing at 50 mg/kg, po after 30 mins relative to indomethacin
Assay type: functional

| molecule | Activity |
| --- | --- |
| Cc1ccc(-c2c(S(=O)(=O)c3ccccc3)cnc3ncnn23)cc1 | 0 |
| Cc1ccc(-c2c(S(=O)(=O)c3ccccc3)cnc3cc(-c4ccc(Br)cc4)nn23)cc1 | 0.76 |
| O=S(=O)(c1ccccc1)c1cnc2ncnn2c1-c1ccc(Br)cc1 | 0.12 |
| Cc1ccc(-c2c(S(=O)(=O)c3ccccc3)cnc3c(Br)c(-c4ccccc4)nn23)cc1 | 0.99 |
| Cc1cc2ncc(S(=O)(=O)c3ccccc3)c(-c3ccc(Br)cc3)n2n1 | 0.65 |
| Cc1ccc(-c2c(S(=O)(=O)c3ccccc3)cnc3cc(-c4ccccc4)nn23)cc1 | 0.32 |
| Cc1ccc(-c2c(S(=O)(=O)c3ccccc3)cnc3nc4ccccc4n23)cc1 | 0.1 |
| Cc1ccc(-c2cc3ncc(S(=O)(=O)c4ccccc4)c(-c4ccc(C)cc4)n3n2)cc1 | 0.86 |
| Cc1ccc(-c2c(S(=O)(=O)c3ccccc3)cnc3cc(C)nn23)cc1 | 0.35 |
| O=S(=O)(c1ccccc1)c1cnc2cc(-c3ccc(Cl)cc3)nn2c1-c1ccc(Br)cc1 | 0.77 |
